Recorded %Inh by entry
- Tested on: DMPK2;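 further: KINOMEscan kinase panel screen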
- Construct: gene CDC42BPG
- assay setup: concentration: 1 μM, replicates: in singlicate; n = 1
measurement type: %Inh (%)

{"compound": "Fc1cc(Cl)ccc1Nc1ccnc2cc(-c3ccc(CN4CCOCC4)o3)ccc12", "measurement": 0}
{"compound": "O=C(Nc1n[nH]c2nc(-c3ccccc3)ccc12)C1CC1", "measurement": 50}
{"compound": "COc1ccc(C)c(Nc2ccnc(Nc3ccc(-c4cnc[nH]4)cc3)n2)c1.Cl", "measurement": 5}
{"compound": "COC(=O)Nc1nc2ccc(Oc3ccc(NC(=O)Nc4cc(C(F)(F)F)ccc4F)cc3)cc2[nH]1.Cl", "measurement": 9}
{"compound": "Cn1cc(-c2cnc(N)c3c(-c4ccc5c(c4)CCN5C(=O)Cc4ccccc4)csc23)cn1", "measurement": 81}
{"compound": "Nc1cccc(-c2ccc3c(N)n[nH]c3c2)c1", "measurement": 0}
{"compound": "Cc1ccc(NC(=O)c2ccc(Cl)c(Cl)c2)cc1-c1ccc(C(=O)Nc2ccncc2)cc1", "measurement": 0}
{"compound": "Nc1ncc(-c2cn[nH]c2)c2scc(-c3ccc4c(c3)CCN4C(=O)Cc3ccccc3)c12", "measurement": 90.3}
{"compound": "COC(=O)Nc1nc2ccc(Oc3ccc(CC(=O)Nc4cc(C(F)(F)F)ccc4F)cc3)cc2[nH]1", "measurement": 0}
{"compound": "NCCC(NC(=O)c1cc(Br)c(-c2ccnc3[nH]ccc23)s1)c1ccccc1.O=C(O)C(F)(F)F.O=C(O)C(F)(F)F (stereo not drawn)", "measurement": 99.8}
{"compound": "Cc1cc(-c2ccnc(Nc3cccc(C#N)c3)n2)cc(C)c1O", "measurement": 22}
{"compound": "Cc1ccc(Nc2ccnc(Nc3ccc(C)c(F)c3)n2)cc1O.Cl", "measurement": 0}
{"compound": "CN(c1ccc(F)c(NC(=O)c2cccc(OC(C)(C)C#N)c2Cl)c1)c1ccc2nc(NC(=O)C3CC3)sc2n1", "measurement": 14}
{"compound": "CN(c1ccc(NC(=O)Nc2cccc(Cl)c2)cc1)c1ccnc(N)n1.Cl", "measurement": 0}
{"compound": "COc1ccc(C2=C(Nc3cccc(O)c3)C(=O)NC2=O)cc1", "measurement": 0}
